Biological target: Cytochrome P450 1A2 (Homo sapiens, UniProt P05177)
Sequence (P05177 whole entry): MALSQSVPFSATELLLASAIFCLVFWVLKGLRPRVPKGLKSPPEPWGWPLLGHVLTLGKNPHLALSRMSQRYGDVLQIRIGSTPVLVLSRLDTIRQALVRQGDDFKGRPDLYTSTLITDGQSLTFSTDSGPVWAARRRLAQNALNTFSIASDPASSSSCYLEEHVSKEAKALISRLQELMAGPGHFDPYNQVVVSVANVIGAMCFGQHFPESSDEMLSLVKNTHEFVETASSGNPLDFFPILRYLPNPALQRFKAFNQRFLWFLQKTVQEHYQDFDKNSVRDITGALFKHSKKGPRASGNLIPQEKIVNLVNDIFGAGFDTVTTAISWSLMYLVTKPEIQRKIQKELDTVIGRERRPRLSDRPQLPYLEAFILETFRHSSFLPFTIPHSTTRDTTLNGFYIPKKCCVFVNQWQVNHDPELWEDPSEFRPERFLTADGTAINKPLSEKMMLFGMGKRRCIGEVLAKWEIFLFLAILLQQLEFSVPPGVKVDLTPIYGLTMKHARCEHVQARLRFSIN
Test: Inhibitory concentration against recombinant human cytochrome P450 1A2
Readout name: log10(IC50) (log10 of the value in µM)
On a log10 scale: recorded IC50, unit µM.

O=C1Cc2ccccc2O1
2.41
COc1ccc(C=O)cc1
2.43
c1ccc2ccccc2c1
2.85
CCc1ccc2ccccc2c1
1.28
Oc1ccc2ccccc2c1 [BETANAPHTHOL]
1.23
Cc1ccc(C)c2ccccc12
0.56

input: Fill in the recorded log10(IC50) for this compound, with Cytochrome P450 1A2 (Homo sapiens, UniProt P05177) as test system: c1ccc2c(c1)CCO2
output: 3.08

input: Fill in the recorded log10(IC50) for this compound, with Cytochrome P450 1A2 (Homo sapiens, UniProt P05177) as test system: Cc1ccc(CCN)cc1
output: 1.15

input: Fill in the recorded log10(IC50) for this compound, with Cytochrome P450 1A2 (Homo sapiens, UniProt P05177) as test system: c1ccc2c(c1)CCC2
output: 2.74

----------
Target: UniProt:P05177
Experiment: Inhibitory concentration against recombinant human cytochrome P450 1A2
pIC50: −log10 of the molar value.
Decision: pIC50 compared against 4; not below it gives 1 (yes), below it gives 0 (no).

Field: example entries. Status: answers known.
CN1C(=O)CCC1c1cccnc1 (single isomer, unassigned)
0 (no)
O=C1CCC(c2ccccc2)O1 (stereo not given)
0 (no)
Cc1ccc2cc(C)ccc2c1
1 (yes)
Cc1cc(C)c2ccccc2n1
1 (yes)
Fc1ccc2ccccc2c1
1 (yes)

input: Is pIC50 at least 4? Consider O=c1[nH]c2ccccc2o1
output: 0 (no)

input: Is pIC50 at least 4? Consider Cc1cc(C)oc(=O)c1
output: 0 (no)

input: Is pIC50 at least 4? Consider Cc1cnc2ccccc2c1
output: 1 (yes)

input: Is pIC50 at least 4? Consider Cc1ccc2c(C)cccc2c1
output: 1 (yes)

input: Is pIC50 at least 4? Consider Cc1ccc2ccc(C)cc2c1
output: 1 (yes)

input: Is pIC50 at least 4? Consider Cc1ccc2cccc(C)c2c1
output: 1 (yes)

input: Is pIC50 at least 4? Consider Clc1ccc(-c2ccccc2)cc1
output: 1 (yes)

input: Is pIC50 at least 4? Consider Clc1cccc2ccccc12
output: 1 (yes)

input: Is pIC50 at least 4? Consider Oc1cccc2ccccc12
output: 1 (yes)

input: Is pIC50 at least 4? Consider CN1CCC[C@@H]1c1cccnc1
output: 0 (no)

input: Is pIC50 at least 4? Consider Clc1ccccc1-c1ccccc1
output: 0 (no)

input: Is pIC50 at least 4? Consider CCCCC1CCCCC1
output: 1 (yes)

input: Is pIC50 at least 4? Consider Cc1cc2ccccc2cn1
output: 1 (yes)

input: Is pIC50 at least 4? Consider c1ccc(-c2ccccc2)cc1
output: 0 (no)

input: Is pIC50 at least 4? Consider Cc1cccc2c(C)cccc12
output: 1 (yes)

input: Is pIC50 at least 4? Consider CCC1CCC(=O)O1 (stereo not given)
output: 0 (no)

input: Is pIC50 at least 4? Consider Cc1ccc2ccccc2n1
output: 1 (yes)

input: Is pIC50 at least 4? Consider CCCCc1ccccc1
output: 0 (no)
